Measured melting point by item

The following compounds have reported results that may help.
- compound: "Cc1cc(NC(=O)Nc2cc(C)nn2C(C)(C)C)n(C(C)(C)C)n1"
  measured.property: "melting point"
  endpoint.result: "235 to 237 °C"
- compound: "CC(Oc1ccc(C#N)cc1)C(=O)NN (stereo not given)"
  measured.property: "melting point"
  endpoint.result: "129 to 131 °C"
- compound: "CCCN(CCC)C(=O)c1ccc(N)cc1"
  measured.property: "melting point"
  endpoint.result: "81 to 83 °C"
- compound: "NC(=O)Cn1cc(NC(=O)OCC(F)(F)F)cn1"
  measured.property: "melting point"
  endpoint.result: "150 to 152 °C"

Query block: Need melting point, item Cc1cc(O)cc(=O)n1CCC(=O)O
Result block: 172 to 174 °C

Query block: Request: CCCOc1ccc2c(c1)OCC(C=O)=C2
Result block: 55 to 57 °C

Query block: Request: O=C(O)C1CCCN(C(=O)Nc2ccccc2F)C1 (stereo not given)
Result block: 139 to 141 °C

* * *

Measured melting point by item

- compound: "CNS(=O)(=O)c1ccc(C(C)=O)cc1"
  melting point: "109 to 111 °C"
- compound: "Cc1ccc(S(=O)(=O)NC(CC(N)=O)C(=O)O)cc1C (configuration not stated)"
  melting point: "179 to 181 °C"
- compound: "Cc1nc(Cl)c2c(n1)CCCC2"
  melting point: "30 to 32 °C"

Query block: Need melting point, item NC(=NO)c1ccc(N2CCC(O)CC2)cc1
Result block: 169 to 171 °C

Query block: Request: N#Cc1ccc(Cl)cc1NCc1ccccn1
Result block: 100 to 102 °C

Query block: Request: COc1cc(C(=O)O)ccc1OCc1cnn(C)c1
Result block: 182 to 184 °C

Query block: Request: COc1ccc(C(C)(C#N)NC(=O)C(F)(F)F)cc1OC (configuration not stated)
Result block: 145 to 147 °C

* * *

measured.property: melting point

- compound: "CCOc1ccc(S(=O)(=O)NCCC(=O)O)cc1"
  melting point: "178 to 180 °C"
- compound: "N#CC(C(=O)N1CCCCC1)c1ccc(C(F)(F)F)cn1 (configuration not stated)"
  melting point: "137 to 139 °C"
- compound: "OCc1ccc(CCl)cc1"
  melting point: "55 to 57 °C"

Query block: Need melting point, item O=[N+]([O-])c1cc2nc(Cl)ccc2cc1F
Result block: 130 to 132 °C

Query block: Request: Cc1c(Cl)cnc(NC(=O)CCl)c1Cl
Result block: 268 to 270 °C

* * *

measured.property: melting point

The following molecules have reported results that may help.
- molecule: "Clc1nc2cccnc2nc1Cl"
  measured.property: "melting point"
  endpoint.result: "143 to 145 °C"
- molecule: "O=C(O)C1CC(=O)N(c2ccccc2F)C1 (configuration not stated)"
  measured.property: "melting point"
  endpoint.result: "130 to 135 °C"
- molecule: "O=c1c(Cl)c(Cl)c1=O"
  measured.property: "melting point"
  endpoint.result: "49 to 51 °C"
- molecule: "Nc1cccc(-c2nnnn2C2CC2)c1"
  measured.property: "melting point"
  endpoint.result: "137 to 139 °C"
- molecule: "CNS(=O)(=O)c1ccc2c(c1)CCN2"
  measured.property: "melting point"
  endpoint.result: "124 to 126 °C"
- molecule: "COc1ncnc(N(C)C)c1N"
  measured.property: "melting point"
  endpoint.result: "69 to 71 °C"
- molecule: "O=C(O)c1ccc(-n2cc(Br)cn2)nn1"
  measured.property: "melting point"
  endpoint.result: "209 to 211 °C"
- molecule: "Cc1oc(C(N)=O)cc1C(=O)CCl"
  measured.property: "melting point"
  endpoint.result: "197 to 199 °C"
- molecule: "CC(C)(C)OC(=O)NCC1CC2CCCC(C1)N2 (configuration not stated)"
  measured.property: "melting point"
  endpoint.result: "219 to 221 °C"
- molecule: "CC(C)c1ccccc1OCCC(=O)O"
  measured.property: "melting point"
  endpoint.result: "84 to 86 °C"

Query block: Need melting point, item CC(C)(Oc1cccc(Cl)c1)C(=O)O
Result block: 59 to 61 °C

Query block: Request: CC(C)c1ccc(S(=O)(=O)N2CCNCC2)cc1
Result block: 125 to 127 °C

Query block: Request: Cc1ccccc1C(N)=NO
Result block: 81 to 83 °C

Query block: Request: COc1ccc(NS(=O)(=O)c2cc(N)ccc2N2CCCC2)cc1
Result block: 178 to 182 °C

Query block: Request: N#CC1(C(=O)O)CCC1
Result block: 64 to 66 °C

Query block: Request: COC(=O)c1ccc(C)c(NCc2[nH]cnc2C)c1
Result block: 180 to 182 °C

Query block: Request: NCC1CCN(C(=O)c2ccccc2)CC1
Result block: 70 to 72 °C

Query block: Request: N#Cc1c(OCCCO)n[nH]c1N
Result block: 155 to 157 °C

Query block: Request: O=C(O)CCCc1nc(-c2ccccc2)no1
Result block: 105 to 107 °C

Query block: Request: CCCn1c(C)c(C(=O)OCC)c2cc(O)ccc21
Result block: 179 to 181 °C

Query block: Request: O=C(O)c1nnn(-c2ccc(F)cc2)c1C1CC1
Result block: 173 to 175 °C

Query block: Request: Clc1ccc(N2CCOCC2)nn1
Result block: 131 to 133 °C

Query block: Request: CCc1ccc(N)cc1S(N)(=O)=O
Result block: 136 to 138 °C

Query block: Request: CC(N)c1nc(-c2ccccc2)c[nH]1 (configuration not stated)
Result block: 129 to 131 °C

Query block: Request: Cc1cc(Cl)nnc1C
Result block: 45 to 47 °C

* * *

measured.property: melting point

- compound: "O=C(O)C1CC1c1ccc(OC(F)(F)F)cc1 (configuration not stated)"
  melting point: "96 to 98 °C"
- compound: "COC(=O)c1cn(CCCC#N)nn1"
  melting point: "75 to 77 °C"
- compound: "COC(=O)c1ccc(-n2cc(C)cn2)c(N)c1"
  melting point: "136 to 138 °C"

Query block: Need melting point, item C=CCc1cc(C=O)cc(OC)c1O
Result block: 80 to 82 °C

Query block: Request: O=C1CCCc2nc(-c3ccccc3Br)sc21
Result block: 130 to 132 °C

Query block: Request: CC(NC(=O)c1ccccc1NC(=O)CCl)c1ccccc1 (configuration not stated)
Result block: 118 to 120 °C

Query block: Request: NCc1cn(-c2ccccc2)nc1-c1ccccc1
Result block: 61 to 63 °C

Query block: Request: CS(=O)(=O)c1ccc(F)c(C(=O)O)c1F
Result block: 175 to 177 °C

Query block: Request: NC(=S)c1cccc(S(N)(=O)=O)c1
Result block: 152 to 154 °C

Query block: Request: COCCOc1c(N)cccc1Cl
Result block: 56 to 58 °C

Query block: Request: N#CCC(=O)c1ccc(C(F)(F)F)cc1
Result block: 48 to 50 °C

* * *

Measured melting point by item

- compound: "CC1CCN(Cc2ccccc2CN)CC1"
  melting point: "161 to 163 °C"
- compound: "CC(=O)CC(=O)c1ccc(Br)cc1"
  melting point: "92 to 94 °C"
- compound: "O=Cc1ccc(OCC(=O)Nc2ccc(Cl)cc2)cc1"
  melting point: "139 to 141 °C"
- compound: "O=C(O)C1CCCN(C(=O)C2Cc3cc(Cl)ccc3O2)C1 (stereo unspecified)"
  melting point: "159 to 161 °C"
- compound: "NNc1cnccn1"
  melting point: "109 to 113 °C"
- compound: "O=C(O)C1CCCN(C(=O)c2c[nH]c3ccccc23)C1 (stereo unspecified)"
  melting point: "231 to 233 °C"
- compound: "CC(C)C(Oc1ccc(F)cc1F)C(=O)O (stereo unspecified)"
  melting point: "67 to 69 °C"
- compound: "Cc1ccc(C(=O)c2ccccc2Cl)cc1"
  melting point: "90 to 92 °C"

Query block: Need melting point, item Cc1noc(-c2ccnc(Cl)c2)n1
Result block: 65 to 67 °C

Query block: Request: O=S(=O)(Cl)N1CCCC2CCCCC21 (stereo unspecified)
Result block: 34 to 36 °C

Query block: Request: Cc1cc(S(N)(=O)=O)c(C)cc1Br
Result block: 207 to 209 °C

Query block: Request: Nc1cc(F)c(Br)cc1N
Result block: 104 to 106 °C

Query block: Request: O=C(O)c1c(F)cccc1Br
Result block: 153 to 155 °C

Query block: Request: CC(Cl)C(=O)Nc1ccc(C(F)(F)F)cc1 (stereo unspecified)
Result block: 130 to 132 °C

Query block: Request: COc1ccc(Cl)cc1CBr
Result block: 77 to 79 °C

Query block: Request: O=C(O)CCC(=O)N1CCOCC1
Result block: 61 to 65 °C

Hello, the source for this data is a melting point compilation (Tetko et al.), in case you need it.
